Origin of values: paper PMC8706783

# measurement.target: UGT2B7 (Homo sapiens)
# Sequence (P16662 24-529): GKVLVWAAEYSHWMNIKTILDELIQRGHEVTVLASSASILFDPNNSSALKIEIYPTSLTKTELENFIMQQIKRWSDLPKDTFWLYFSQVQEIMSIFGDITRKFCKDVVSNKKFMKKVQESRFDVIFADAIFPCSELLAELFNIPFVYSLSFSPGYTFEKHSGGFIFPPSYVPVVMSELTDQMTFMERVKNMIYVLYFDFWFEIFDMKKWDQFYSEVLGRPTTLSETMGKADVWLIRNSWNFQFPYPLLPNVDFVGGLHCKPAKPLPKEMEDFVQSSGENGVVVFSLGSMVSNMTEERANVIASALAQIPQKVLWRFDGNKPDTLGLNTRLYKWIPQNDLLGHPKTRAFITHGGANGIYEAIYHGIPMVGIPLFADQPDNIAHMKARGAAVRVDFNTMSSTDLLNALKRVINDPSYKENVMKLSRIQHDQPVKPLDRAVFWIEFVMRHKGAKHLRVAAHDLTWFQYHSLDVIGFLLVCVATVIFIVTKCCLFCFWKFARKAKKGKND
# assay.notes: Reaction phenotyping, rUGT2B7
# applied.conditions: recombinant UGT2B7, pH 7.4
reported.property: remaining at 1 h, 10 µM (%)
Give just the number in %; leave the unit off.

# query: remaining at 1 h, 10 µM | item Cc1cn([C@H]2C[C@H](N=[N+]=[N-])[C@@H](CO)O2)c(=O)[nH]c1=O | system: UGT2B7 (Homo sapiens)
74.4

====

# measurement.target: CYP3A4 (Homo sapiens)
# Sequence (P08684 whole entry): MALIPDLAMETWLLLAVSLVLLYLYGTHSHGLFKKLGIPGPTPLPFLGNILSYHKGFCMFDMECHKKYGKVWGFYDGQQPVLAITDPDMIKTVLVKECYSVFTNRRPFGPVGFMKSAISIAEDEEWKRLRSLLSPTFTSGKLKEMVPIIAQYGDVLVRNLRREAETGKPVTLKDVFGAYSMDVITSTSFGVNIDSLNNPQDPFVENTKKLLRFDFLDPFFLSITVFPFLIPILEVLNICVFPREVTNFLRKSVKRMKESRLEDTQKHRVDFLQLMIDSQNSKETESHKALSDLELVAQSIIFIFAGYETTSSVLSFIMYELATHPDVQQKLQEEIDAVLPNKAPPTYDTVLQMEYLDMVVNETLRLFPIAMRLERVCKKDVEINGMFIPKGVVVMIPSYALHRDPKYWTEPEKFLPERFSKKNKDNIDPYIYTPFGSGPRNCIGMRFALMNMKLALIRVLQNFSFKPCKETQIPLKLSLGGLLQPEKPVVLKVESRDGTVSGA
# assay.notes: Reaction phenotyping, rCYP3A4
# applied.conditions: recombinant enzyme, pH 7.4
reported.property: remaining at 1 h, 1 µM (%)
Give just the number in %; leave the unit off.

# query: remaining at 1 h, 1 µM | item Cc1ncc2n1-c1ccc(Cl)cc1C(c1ccccc1F)=NC2 | system: CYP3A4 (Homo sapiens)
4.02
